system.under.test: recombinant human HDAC5 (Homo sapiens)
Construct: purchased BPS Biosciences
assay.remarks: 384-well fluorometric deacetylase assay (substrate MAZ1675), HDAC5
Type: biochemical
experimental.conditions: rate of reaction (slope); DMSO control 50401
assay.endpoint: HDAC5 slope
Just the number, please, no unit after it.

Some solved cases for reference:
> print(dat)
                                   compound                       system.under.test  assay.endpoint  recorded.measurement
1  CCN(CC)CCc1nc(-c2ccccc2)no1.O=C(O)CC(O)(CC(=O)O)C(=O)O [Oxalamine citrate salt]  recombinant human HDAC5 (Homo sapiens)     HDAC5 slope                 47216
2            NC(C(=O)O)c1nnn[nH]1 (racemic)  recombinant human HDAC5 (Homo sapiens)     HDAC5 slope                 45589
3  O=C(O)[C@@H]1C[C@H]2C[C@@H](CP(=O)(O)O)CC[C@H]2CN1 [LY 235959]  recombinant human HDAC5 (Homo sapiens)     HDAC5 slope                 43688
4  N[C@H](CC(=O)O)C(=O)O [D- ASPARTIC ACID, D-aspartic acid]  recombinant human HDAC5 (Homo sapiens)     HDAC5 slope                 45291

Which HDAC5 slope is listed for Oc1cc2c(c(Cl)c1O)CCNC[C@@H]2c1ccccc1 [R(+)-SKF- 81297] ?
48294

----------
Listing of recorded HDAC5 slope by entry.
system.under.test: recombinant human HDAC5 (Homo sapiens, UniProt Q9UQL6)
Construct: purchased BPS Biosciences
Sequence (Q9UQL6 whole entry): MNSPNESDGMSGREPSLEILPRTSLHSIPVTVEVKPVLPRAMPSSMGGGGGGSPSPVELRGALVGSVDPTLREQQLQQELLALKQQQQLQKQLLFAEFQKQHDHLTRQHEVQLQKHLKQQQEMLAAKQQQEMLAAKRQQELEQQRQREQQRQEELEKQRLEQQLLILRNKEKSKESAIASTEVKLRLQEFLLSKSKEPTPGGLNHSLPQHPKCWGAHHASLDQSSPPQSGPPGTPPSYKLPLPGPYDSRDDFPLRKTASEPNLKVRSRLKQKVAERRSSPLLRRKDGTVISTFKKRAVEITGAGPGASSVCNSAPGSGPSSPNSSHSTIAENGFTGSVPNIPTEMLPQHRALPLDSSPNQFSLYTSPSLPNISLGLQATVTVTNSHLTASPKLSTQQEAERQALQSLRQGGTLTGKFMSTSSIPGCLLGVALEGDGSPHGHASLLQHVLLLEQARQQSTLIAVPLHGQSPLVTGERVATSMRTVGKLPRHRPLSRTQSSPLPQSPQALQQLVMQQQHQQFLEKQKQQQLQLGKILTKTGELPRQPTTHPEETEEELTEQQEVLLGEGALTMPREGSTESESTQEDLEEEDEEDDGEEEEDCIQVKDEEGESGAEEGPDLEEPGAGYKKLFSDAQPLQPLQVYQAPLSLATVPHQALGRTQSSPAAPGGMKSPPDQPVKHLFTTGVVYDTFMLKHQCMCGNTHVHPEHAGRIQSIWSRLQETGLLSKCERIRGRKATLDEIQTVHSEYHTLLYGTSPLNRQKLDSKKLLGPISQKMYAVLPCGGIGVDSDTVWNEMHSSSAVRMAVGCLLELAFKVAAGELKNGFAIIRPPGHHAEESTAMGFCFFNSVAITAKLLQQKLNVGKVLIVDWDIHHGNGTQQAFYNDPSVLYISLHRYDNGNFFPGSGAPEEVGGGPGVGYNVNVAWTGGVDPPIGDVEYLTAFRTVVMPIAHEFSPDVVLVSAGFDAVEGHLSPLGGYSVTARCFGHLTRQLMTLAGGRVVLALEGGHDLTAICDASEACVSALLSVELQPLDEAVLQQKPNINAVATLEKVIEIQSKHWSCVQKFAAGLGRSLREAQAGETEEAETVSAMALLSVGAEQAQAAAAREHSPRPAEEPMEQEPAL
assay.remarks: 384-well fluorometric deacetylase assay (substrate MAZ1675), HDAC5
Format: biochemical
experimental.conditions: rate of reaction (slope); DMSO control 50401
Note: the reply should be a number with no unit written.

> print(dat)
                                   compound  recorded.measurement
1           C[C@H](N)[C@H](O)c1ccc(O)c(O)c1                 47752
2       O=C(O)[C@H]1C[C@@H](CP(=O)(O)O)CCN1                 48280
3         NCC(CC(=O)O)c1ccc(Cl)s1 (racemic)                 50272
4  CC1(C)S[C@@H]2[C@H](NC(=O)[C@H](N)c3ccccc3)C(=O)N2[C@H]1C(=O)O [Ampicillin trihydrate]                 46606

# input compound: "COc1cc([C@@H]2c3cc4c(cc3[C@H](O)[C@H]3COC(=O)[C@H]23)OCO4)cc(OC)c1OC" ; wanted: its HDAC5 slope
54734

Further, for CC(O)(P(=O)([O-])O)P(=O)([O-])O.[Na+].[Na+] [Etidronic acid, disodium salt] ?
51711

Let us now turn to "C[C@](N)(Cc1ccc(O)c(O)c1)C(=O)O"
56516

Can you check "CP(=O)(O)CCCN" next?
49250

----------
system.under.test: recombinant human HDAC2 (Homo sapiens)
Construct: purchased BPS Biosciences
Sequence (Q92769 whole entry): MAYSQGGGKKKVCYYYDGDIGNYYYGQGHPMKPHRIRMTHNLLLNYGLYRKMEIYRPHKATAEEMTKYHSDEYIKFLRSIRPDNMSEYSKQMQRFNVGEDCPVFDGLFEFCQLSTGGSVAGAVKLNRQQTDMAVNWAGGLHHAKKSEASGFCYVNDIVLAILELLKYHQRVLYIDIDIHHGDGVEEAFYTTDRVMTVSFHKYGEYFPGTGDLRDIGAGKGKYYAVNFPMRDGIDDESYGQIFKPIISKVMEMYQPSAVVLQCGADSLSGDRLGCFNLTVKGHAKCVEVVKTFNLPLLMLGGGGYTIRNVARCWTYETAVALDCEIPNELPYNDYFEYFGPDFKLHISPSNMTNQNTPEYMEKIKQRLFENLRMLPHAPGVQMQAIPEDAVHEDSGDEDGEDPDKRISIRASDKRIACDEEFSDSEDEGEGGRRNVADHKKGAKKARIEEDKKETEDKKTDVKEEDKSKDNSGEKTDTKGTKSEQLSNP
assay.remarks: 384-well fluorometric deacetylase assay (substrate MAZ1600), HDAC2
Assay type: biochemical
experimental.conditions: rate of reaction (slope); DMSO control 40839
assay.endpoint: HDAC2 slope
// print number alone

Example entries begin here.
> print(dat)
                                    molecule                       system.under.test  assay.endpoint  recorded.measurement
 1  COc1cc([C@@H]2c3cc4c(cc3[C@H](O)[C@H]3COC(=O)[C@H]23)OCO4)cc(OC)c1OC  recombinant human HDAC2 (Homo sapiens)     HDAC2 slope                 39197
 2                     N[C@H](CC(=O)O)C(=O)O  recombinant human HDAC2 (Homo sapiens)     HDAC2 slope                 42016
 3  CC(O)(P(=O)([O-])O)P(=O)([O-])O.[Na+].[Na+] [Etidronic acid, disodium salt]  recombinant human HDAC2 (Homo sapiens)     HDAC2 slope                 41315
 4       O=C(O)[C@H]1C[C@@H](CP(=O)(O)O)CCN1  recombinant human HDAC2 (Homo sapiens)     HDAC2 slope                 42301
 5  CCN(CC)CCc1nc(-c2ccccc2)no1.O=C(O)CC(O)(CC(=O)O)C(=O)O [Oxalamine citrate salt]  recombinant human HDAC2 (Homo sapiens)     HDAC2 slope                 41269
 6           C[C@H](N)[C@H](O)c1ccc(O)c(O)c1  recombinant human HDAC2 (Homo sapiens)     HDAC2 slope                 40182
 7  O=C(O)[C@@H]1C[C@H]2C[C@@H](CP(=O)(O)O)CC[C@H]2CN1  recombinant human HDAC2 (Homo sapiens)     HDAC2 slope                 42923
 8  Oc1cc2c(c(Cl)c1O)CCNC[C@@H]2c1ccccc1 [R(+)-SKF- 81297]  recombinant human HDAC2 (Homo sapiens)     HDAC2 slope                 42197
 9         NCC(CC(=O)O)c1ccc(Cl)s1 (racemic)  recombinant human HDAC2 (Homo sapiens)     HDAC2 slope                 40008
10            NC(C(=O)O)c1nnn[nH]1 (racemic)  recombinant human HDAC2 (Homo sapiens)     HDAC2 slope                 42215

HDAC2 slope lookup needed for "C[C@](N)(Cc1ccc(O)c(O)c1)C(=O)O" , thanks.
42153

Similarly, CC1(C)S[C@@H]2[C@H](NC(=O)[C@H](N)c3ccccc3)C(=O)N2[C@H]1C(=O)O [Ampicillin trihydrate] ?
43966

Would you kindly repeat that for "CP(=O)(O)CCCN" ?
39881
